Source: patent US20100022514A1

target: HDAC-1 (Homo sapiens)
Construct: made in house
assay_remarks: Deacetylase fluorescence assay (HDAC-1)
Format: biochemical
test_settings: read-out: HDAC-1 IC50
pIC50: −log10 of the molar value.
quantity_name: pIC50

> print(dat)
                                smiles.code  value.observed
1  COc1ccc(CC(=O)N2CCc3ccc(/C=C/C(=O)NO)cc3C2)cc1          > 7.00
2     CS(=O)(=O)N1Cc2ccc(/C=C/C(=O)NO)cc2C1    6.00 to 7.00
3  Cc1ccc(CC(=O)N2CCc3ccc(/C=C/C(=O)NO)cc3C2)cc1          > 7.00
4  O=C(/C=C/c1ccc2c(c1)CN(C(=O)Cc1ccccc1)C2)NO    6.00 to 7.00
5  Cc1[nH]c2ccccc2c1CC(=O)N1CCc2cc(/C=C/C(=O)NO)ccc2C1          > 7.00
6   O=C(/C=C/c1ccc2c(c1)CN(C(=O)C1CC1)C2)NO    6.00 to 7.00
7  CC(C)(C)OC(=O)N1Cc2ccc(/C=C/C(=O)NO)cc2C1    6.00 to 7.00
8  Cc1noc(-c2ccccc2)c1CCN1Cc2ccc(/C=C/C(=O)NO)cc2C1    6.00 to 7.00

Pending molecule:
## Task Request the reported pIC50 associated with O=C(/C=C/c1ccc2c(c1)CN(C(=O)c1cccc(C(F)(F)F)c1)C2)NO
## Result 6.00 to 7.00

====

target: HDAC-1 (Homo sapiens, UniProt Q13547)
Construct: made in house
Sequence (Q13547 whole entry): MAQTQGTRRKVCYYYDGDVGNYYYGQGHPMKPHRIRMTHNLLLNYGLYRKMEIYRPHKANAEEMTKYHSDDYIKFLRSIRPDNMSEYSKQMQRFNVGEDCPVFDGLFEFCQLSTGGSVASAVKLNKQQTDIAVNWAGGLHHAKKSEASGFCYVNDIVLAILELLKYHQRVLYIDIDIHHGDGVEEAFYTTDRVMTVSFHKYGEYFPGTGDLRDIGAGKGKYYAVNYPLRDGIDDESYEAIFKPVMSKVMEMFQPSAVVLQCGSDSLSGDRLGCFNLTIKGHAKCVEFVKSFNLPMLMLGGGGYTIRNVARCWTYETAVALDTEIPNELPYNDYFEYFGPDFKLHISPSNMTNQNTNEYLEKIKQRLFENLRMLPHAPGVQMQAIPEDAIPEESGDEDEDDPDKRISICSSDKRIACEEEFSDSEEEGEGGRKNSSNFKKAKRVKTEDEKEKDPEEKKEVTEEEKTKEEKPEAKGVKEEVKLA
assay_remarks: Deacetylase fluorescence assay (HDAC-1)
Assay type: biochemical
test_settings: read-out: HDAC-1 IC50
pIC50: −log10 of the molar value.
quantity_name: pIC50

> print(dat)
                                smiles.code  value.observed
1  O=C(/C=C/c1ccc2c(c1)CCN(CCc1cnn3ccccc13)C2)NO          > 7.00

## Task Request the reported pIC50 associated with O=C(/C=C/c1ccc2c(c1)CN(C(=O)Cc1ccccc1)CC2)NO
## Result > 7.00

## Task Request the reported pIC50 associated with O=C(/C=C/c1ccc2c(c1)CCN(CCC1CCCCC1)C2)NO
## Result > 7.00

## Task Request the reported pIC50 associated with Cc1c(CCN2CCc3ccc(/C=C/C(=O)NO)cc3C2)cnn1-c1ccccc1
## Result 6.00 to 7.00

## Task Request the reported pIC50 associated with O=C(/C=C/c1ccc2c(c1)CN(S(=O)(=O)c1ccccc1)CC2)NO
## Result 6.00 to 7.00

## Task Request the reported pIC50 associated with Cc1[nH]c2ccccc2c1CC(=O)N1Cc2ccc(/C=C/C(=O)NO)cc2C1
## Result > 7.00

====

target: HDAC-1 (Homo sapiens, UniProt Q13547)
Construct: made in house
assay_remarks: Deacetylase fluorescence assay (HDAC-1)
Assay type: biochemical
test_settings: read-out: HDAC-1 IC50
pIC50: −log10 of the molar value.
quantity_name: pIC50

> print(dat)
                                   compound  quantity.name  value.observed
1  Cc1[nH]c2ccccc2c1CC(=O)N1CCc2ccc(CCC(=O)NO)cc2C1 [Example 62]          pIC50          > 7.00
2  O=C(/C=C/c1ccc2c(c1)CN(CCc1ccccc1)CC2)NO [Example 44]          pIC50    6.00 to 7.00
3  COc1ccc(C(=O)N2CCc3ccc(/C=C/C(=O)NO)cc3C2)cc1 [Example 57]          pIC50          > 7.00

## Task Fill in the recorded pIC50 for this compound, with HDAC-1 (Homo sapiens, UniProt Q13547) as test system: Cc1nn2ccccc2c1CCN1CCCc2cc(/C=C/C(=O)NO)ccc2C1 [Example 33]
## Result > 7.00
